The following compounds are listed with their measured composite z-score values.
test system: Wnt5a (protein binding on small-molecule microarray); experiment: Wnt5a binders on small-molecule microarray, primary screen, biophysical, 635/667 nm fluorescence (AID 1142); settings: 635 nm fluorescence, higher = more signal;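 note: fluorescence read at 667 nm with signal to noise per printed feature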

{"compound": "O=C(c1ccccc1)N1Cc2ccccc2C[C@@]2(N=C(c3ccc(OCCCO)cc3)O[C@H]2c2ccccc2)C1=O", "target.desc": "Wnt5a (protein binding on small-molecule microarray)", "composite z-score": 1.27}
{"compound": "NCCCCCCNC(=O)[C@@H]1C[C@@H]2C(=O)NCC(=O)N2[C@@H]1c1cccc(OCCO)c1", "target.desc": "Wnt5a (protein binding on small-molecule microarray)", "composite z-score": 0.729}
{"compound": "CCCCCCCCCCC(O)C1C=CC2C(=O)N(C)C(=O)C2N1Nc1ccccc1 (stereo not drawn)", "target.desc": "Wnt5a (protein binding on small-molecule microarray)", "composite z-score": -0.56}

* * *

tested on: Chordin-like protein 2 (CHRDL2); experiment: CHRDL2 small-molecule binders, primary screen, biochemical, small-molecule microarray, 635 nm fluorescence (AID 1126); conditions: small-molecule microarray binding, fluorescence 635 nm; higher = more signal;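 note: printed compound slides probed with Chrdl2 protein at 4 µg/mL for 1 h at 4 C; score merges 667 nm emission intensity with signal to noise over three replicate slides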
Measured composite z-score, listed per entry.
parameter.measured: composite z-score

{"compound": "COCCOC(=O)N1C(=O)[C@@]2(c3cc(C#CC4=CCCCC4)ccc31)[C@H](C(=O)N1CCCCCCC1)[C@H]1C(=O)O[C@H](c3ccccc3)[C@H](c3ccccc3)N1[C@@H]2c1ccccc1OCCO", "parameter.measured": "composite z-score", "test.result": 0.6}
{"compound": "COC(=O)[C@@]1(Cc2ccccc2)[C@H]2c3cc(C(=O)N(C)C)n(Cc4ccc(Cl)c(C(F)(F)F)c4)c3C[C@H]2CN1C(=O)c1ccccc1", "parameter.measured": "composite z-score", "test.result": -0.123}
{"compound": "CCCCCCCCCCC(O)C1C=CC2C(=O)N(C)C(=O)C2N1Nc1ccccc1 (configuration not stated)", "parameter.measured": "composite z-score", "test.result": -1.84}
{"compound": "COC(=O)[C@@]1(Cc2ccccc2)[C@H]2c3cc(C(=O)N(C)C)n(CCF)c3C[C@H]2CN1C(=O)c1ccccc1", "parameter.measured": "composite z-score", "test.result": -0.927}
{"compound": "CC[C@H]1C2=C3C(CC[C@H]4C(OCc5ccc(F)cc5C(F)(F)F)OC[C@](C)([C@@H]34)N(C(=O)OC(C)(C)C)C2)C(COC(C)=O)C1COC(C)=O (some centres not stated)", "parameter.measured": "composite z-score", "test.result": -1.23}
{"compound": "COc1ccc(C(O)C2C=CC3C(=O)N(c4ccccc4)C(=O)C3N2Nc2ccccc2F)c2ccccc12 (configuration not stated)", "parameter.measured": "composite z-score", "test.result": -0.316}
{"compound": "C=C(C(=O)CC[C@H](OC(=O)c1ccccc1-c1ccccc1C(=O)O)c1ccc(OCCO)cc1)C(C)C", "parameter.measured": "composite z-score", "test.result": -0.0766}

* * *

Form field: composite z-score (one value per entry).
test system: Sonic hedgehog protein (Shh); experiment: small-molecule binders of Shh protein, primary screen, biochemical, small-molecule microarray, 635/667 nm fluorescence (AID 1151); settings: small-molecule microarray binding, 635 nm fluorescence; higher = more signal;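 note: Shh protein binding to compounds spotted on small-molecule microarray slides; score combines spot fluorescence intensity with signal-to-noise across triplicate slides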

{"record.smiles": "[N-]=[N+]=NCc1ccccc1[C@H]1OC(c2ccc(OCCCO)cc2)=N[C@@]1(CCS(=O)(=O)c1ccccc1)C(=O)NCCN1CCOCC1", "composite z-score": -0.597}
{"record.smiles": "CCOC(=O)C1=C[C@@H](C(C)(C)C)N(S(=O)(=O)c2ccc(C)cc2)[C@H]1c1ccc(OC)cc1", "composite z-score": 0.523}
{"record.smiles": "COc1ccc(CCNC(=O)[C@@H]2c3ccccc3C(=O)N(C(C)C)[C@H]2c2ccc(CO)cc2)cc1", "composite z-score": -0.937}

* * *

The following molecules are shown together with reported z-score values.
test: P. aeruginosa biofilm formation inhibitors, primary screen, strain PAO1, LB-PBS medium, absorbance 600 nm (AID 1176); note: test concentration not given here; settings: P. aeruginosa PAO1 growth/biofilm, A600, 12 h; higher = more signal

{"molecule": "COc1ccc([Si](C)(C)[C@H]2[C@H](CC(=O)N(CCO)Cc3ccccc3)O[C@@]3(C(=O)N(Cc4ccc(N5C(=O)c6cccc7cccc5c67)cc4)c4ccccc43)[C@@H]2C)cc1", "z-score": 0.319}
{"molecule": "C[N+](C)(C)CCCC[C@@H]1NC(=O)[C@H]2C[C@@H](C(=O)NCCCCCN)[C@@H](c3ccc(O)cc3)N2C1=O", "z-score": -1.14}
{"molecule": "C=C(COC)C(=O)CC[C@H](OC(C)=O)c1ccccc1OCCO", "z-score": -0.435}
{"molecule": "COc1ccc(CCNC(=O)[C@@]2(c3ccc([N+](=O)[O-])cc3)CC(=O)N(C3CCCCC3)[C@@H]2c2ccc(CO)cc2I)cc1", "z-score": 0.14}
{"molecule": "CCOC(=O)C=C1C[C@@H](c2cccc([N+](=O)[O-])c2)O[C@@H](c2cccc([N+](=O)[O-])c2)O1", "z-score": 0.285}
{"molecule": "COc1cc2c(cc1OC)CN(C(=O)[C@@H]1[C@H]3C(=O)O[C@H](c4ccccc4)[C@H](c4ccccc4)N3[C@H](c3ccc(O)cc3)[C@@]13C(=O)Nc1ccc(C#CC4=CCCCC4)cc13)CC2", "z-score": 0.297}
{"molecule": "COC(=O)c1ccc(OC)c(/C=C\\CC(OC(=O)c2ccncc2)c2ccccc2)c1 (centres undefined)", "z-score": 0.792}
{"molecule": "Cc1ccc(S[C@]2(C(=O)NC3CC3)CC(=O)N(C3Cc4ccccc4C3)[C@@H]2c2ccc(CO)cc2I)cc1", "z-score": 0.0493}
{"molecule": "CC1(C)OB(/C=C\\CC(OC(=O)c2ccncc2)c2ccccc2)OC1(C)C (centres undefined)", "z-score": -0.159}
{"molecule": "C=CCOC(=O)[C@@H]1[C@H]2C(=O)O[C@H](c3ccccc3)[C@H](c3ccccc3)N2[C@H](c2ccc(OCCOC(=O)[C@@H]3C[C@@H]4C(=O)N[C@@H](CC(C)C)C(=O)N4[C@@H]3c3ccc(O)cc3)cc2)[C@@]12C(=O)Nc1ccc(I)cc12", "z-score": 0.848}
{"molecule": "COc1ccc(C(=O)Nc2ccc(CN3C(=O)[C@]4(O[C@H](CC(=O)N(CCO)Cc5ccccc5)[C@@H]([Si](C)(C)c5ccc(OC)cc5)[C@@H]4C)c4ccccc43)cc2)cc1", "z-score": 0.671}
{"molecule": "CCCCC(=C=CC[C@H](O)c1ccccc1OCCO)CCO", "z-score": 0.755}
{"molecule": "Cc1c(NC(=O)/C(C#N)=C/C=C/c2ccc([N+](=O)[O-])cc2)c(=O)n(-c2ccccc2)n1C", "z-score": -0.736}
{"molecule": "CC(C)(C)OC(=O)CC[C@]1(C(N)=O)N=C(c2ccc(OCCCO)cc2)O[C@H]1c1ccccc1N=[N+]=[N-]", "z-score": -0.0279}

* * *

The reader will find reported z-score values listed item by item below.
assay: mitochondrial membrane potential change in A549 cells, profiling panel, cell-based, JC-1 fluorescence, basal, 24 h, 100 nL (AID 1138); conditions: higher = more signal;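 note: A549 lung adenocarcinoma cells under basal conditions with no added stimulus; test concentration not given here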

{"compound": "COC(=O)[C@@]1(Cc2ccccc2)[C@H]2c3cc(C(=O)N(C)C)n(Cc4ccc(Cl)c(C(F)(F)F)c4)c3C[C@H]2CN1C(=O)c1ccccc1", "z-score": 0.32}
{"compound": "O=C1O[C@H](c2ccccc2)[C@H](c2ccccc2)N2[C@H]1[C@@H](C(=O)Nc1nc3ccccc3s1)[C@]1(C(=O)Nc3ccccc31)[C@H]2c1ccccc1OCCO", "z-score": -1.84}
{"compound": "O=C1OCC=C[C@H]2OC34C=CCN(Cn5nnc6ccccc65)C(=O)[C@H]3N(CCO)C(=O)[C@@H]4[C@@H]12 (stereo partly drawn)", "z-score": -0.546}

* * *

Measured z-score by item
assay: basal S. cerevisiae growth modulation, no modifier, primary screen, OD600, strain BY4716, 24 h, basal condition (AID 1173); conditions: OD600, 24 h, higher = more signal, called active from +8 up or from −8 down
Active and inactive are the calls of the source.
parameter.measured: z-score

{"compound": "C=CCOC(=O)[C@H]1[C@@H]2C(=O)O[C@@H](c3ccccc3)[C@@H](c3ccccc3)N2[C@@H](c2ccc(OCCOC(=O)[C@H]3C[C@H]4C(=O)NCC(=O)N4[C@H]3c3cccc(OCCO)c3)cc2)[C@]12C(=O)Nc1ccc(I)cc12", "test.result": "1.18 (inactive)"}
{"compound": "CCOC(=O)C[C@H]1[C@H](OC(=O)c2cc3ccccc3oc2=O)[C@@H](NC(=O)c2ccc(-c3ccccc3)cc2)c2cc(OCCCO)ccc2N1C(=O)Cc1ccc(OC)cc1", "test.result": "0.0392 (inactive)"}
{"compound": "COC(=O)c1c2oc(c1C(=O)OC)C(=O)N[C@H](Cc1ccccc1)Cn1cc(nn1)C1(CCCCC1)NC(=O)N[C@H](CO)CC2", "test.result": "-2.6 (inactive)"}
{"compound": "COc1cc2c(cc1O)C(C)N(Cc1sc3ccccc3c1Cl)CC2 (stereo not drawn)", "test.result": "-0.961 (inactive)"}
{"compound": "C[N+](C)(C)CCCC[C@@H]1NC(=O)[C@H]2C[C@@H](C(=O)NCCCCCN)[C@@H](c3ccc(O)cc3)N2C1=O", "test.result": "-0.589 (inactive)"}
{"compound": "C[C@]12C(=O)N(CCO)[C@@H]3C(=O)N(c4ccc(Cl)cc4)CC=CC31O[C@@H]1/C=C\\CCCOC(=O)C12 (stereo partly drawn)", "test.result": "0.13 (inactive)"}
{"compound": "CC(C)c1ccc(NN2C(C(O)c3ccccc3)C=CC3C(=O)N(c4ccccc4)C(=O)C32)cc1 (stereo not drawn)", "test.result": "-1.79 (inactive)"}
{"compound": "CC(C)(C)OC(=O)CC[C@]1(C(=O)N2CCOCC2)COC(c2ccc(OCCCO)cc2)=N1", "test.result": "-0.444 (inactive)"}
{"compound": "CC(CO)N1C(=O)[C@@H]2[C@H]3C(=O)OCC=C[C@H]3OC23C=CCN(c2ccc4ccccc4c2)C(=O)[C@@H]13 (stereo partly drawn)", "test.result": "-0.0392 (inactive)"}
{"compound": "[N-]=[N+]=NCc1ccccc1C[C@@]1(C(N)=O)N=C(c2ccc(OCCCO)cc2)O[C@@H]1c1ccccc1N=[N+]=[N-]", "test.result": "-1.35 (inactive)"}
{"compound": "O=C1O[C@H](c2ccccc2)[C@H](c2ccccc2)N2[C@H]1[C@@H](C(=O)N1CCCCCCC1)[C@]1(C(=O)Nc3ccc(C#CCCO)cc31)[C@H]2c1ccc(O)cc1", "test.result": "0.206 (inactive)"}
{"compound": "C=CCOC(=O)[C@H]1[C@@H]2C(=O)O[C@@H](c3ccccc3)[C@@H](c3ccccc3)N2[C@@H](c2ccc(OCCOC(=O)[C@H]3C[C@H]4C(=O)NCC(=O)N4[C@H]3c3ccc(O)cc3)cc2)[C@]12C(=O)Nc1ccccc12", "test.result": "1.1 (inactive)"}
{"compound": "C=CCOC(=O)[C@H]1[C@@H]2C(=O)O[C@@H](c3ccccc3)[C@@H](c3ccccc3)N2[C@@H](c2ccc(OCCOC(=O)[C@@H]3C[C@@H]4C(=O)N[C@@H](Cc5ccccc5)C(=O)N4[C@@H]3c3ccc(O)cc3)cc2)[C@]12C(=O)Nc1ccc(I)cc12", "test.result": "2.3 (inactive)"}
